Give LD50 for every item shown.
# Assay Remarks: acute toxicity, in mice
# Type: in vivo
# Test Settings: mouse, in vivo, ip, mice

What value of measured LD50 is listed for CNC1CCCc2scnc21 (centres unmarked) ?
> 200 mg/kg

What value of measured LD50 is listed for CNC1CCc2nc(C)sc2C1 (centres unmarked) ?
≥ 100 mg/kg

What value of measured LD50 is listed for NC1CCc2scnc2C1 (centres unmarked) ?
> 200 mg/kg

What value of measured LD50 is listed for CNC1CCc2ncsc2C1.Cl (centres unmarked) ?
> 200 mg/kg

What value of measured LD50 is listed for Cc1nc2c(s1)CC(N)CC2.Cl (centres unmarked) ?
< 100 mg/kg

====

# Assay Remarks: acute toxicity, in mice
# Assay type: in vivo
# Test Settings: mouse, in vivo, po, mice
Measured Parameter: LD50

What value of measured LD50 is listed for CNC1CCc2ncsc2C1.Cl (centres unmarked) ?
> 200 mg/kg

What value of measured LD50 is listed for CNC1CCCc2scnc21 (centres unmarked) ?
> 200 mg/kg

What value of measured LD50 is listed for Cc1nc2c(s1)CC(N)CC2.Cl (centres unmarked) ?
> 200 mg/kg

What value of measured LD50 is listed for NC1CCc2scnc2C1 (centres unmarked) ?
> 200 mg/kg

What value of measured LD50 is listed for CNC1CCc2nc(C)sc2C1 (centres unmarked) ?
> 200 mg/kg
